Below is a list of entries, each paired with its recorded Kd value.
Target: T1, GFP-9S library array, motif 4 ND N98S;D124Q (synthetic construct, N98S;D124Q)
T1 chain: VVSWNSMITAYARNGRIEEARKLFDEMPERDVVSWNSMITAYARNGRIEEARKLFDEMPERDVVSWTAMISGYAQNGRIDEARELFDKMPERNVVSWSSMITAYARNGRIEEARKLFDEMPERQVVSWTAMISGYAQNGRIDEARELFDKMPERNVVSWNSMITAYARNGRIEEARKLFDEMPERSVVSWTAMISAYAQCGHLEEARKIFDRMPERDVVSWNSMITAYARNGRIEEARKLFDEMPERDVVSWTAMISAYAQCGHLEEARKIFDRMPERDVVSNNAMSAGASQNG
Assay: high-throughput RNA pulldown from lysate on Ni-NTA beads; HRP: 50 mM Tris pH 8, 150 mM NaCl, 1 mM beta-mercaptoethanol, 50 ug/ml BSA, 3 ug/ml yeast RNA, 0.5% heparin; ITC and FP: Tris pH 8, 200 mM KCl, 5% glycerol; MST: 50 mM Tris pH 8, 200 mM NaCl, 1 mM DTT, BSA, heparin, 0.05% Tween 20
Details: tags: N-terminal His-eGFP; label: 5' IRDye 800CW
Answer format reminder: number followed by unit.

>  <binder>
AUUAAACGUGA (ssRNA) [IR-rpoA-A]

>  <measured.property>
Kd

>  <result.value>
40.3 nM

$$$$

AUUAUACGUGA (ssRNA) [IR-rpoA-U] yielded Kd of 179 nM
